Quick list: ELISA score per entry.
# TARGET ENTITY: T1, human neonatal Fc receptor (hFcRn) (human, UniProt P55899 24-290; P61769 21-119)
# T1 construct: Biotinylated in the ELISA, Octet and yeast assays; also called human FcRn; huFcRn
# T1 sequence (P55899 24-290 limits assumed, chain 1 of 2): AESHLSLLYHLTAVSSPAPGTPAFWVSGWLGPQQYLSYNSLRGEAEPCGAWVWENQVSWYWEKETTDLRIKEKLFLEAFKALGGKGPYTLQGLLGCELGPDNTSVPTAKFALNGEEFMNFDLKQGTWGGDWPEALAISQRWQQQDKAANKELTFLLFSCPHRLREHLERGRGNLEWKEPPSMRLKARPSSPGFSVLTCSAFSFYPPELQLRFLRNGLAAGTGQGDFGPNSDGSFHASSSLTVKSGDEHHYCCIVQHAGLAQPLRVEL
# T1 sequence (P61769 21-119 limits assumed, chain 2 of 2): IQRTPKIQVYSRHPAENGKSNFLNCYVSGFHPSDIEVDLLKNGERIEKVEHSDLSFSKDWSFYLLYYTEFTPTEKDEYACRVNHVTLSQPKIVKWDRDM
# ASSAY REMARKS: phage ELISA pH 7.4;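 note: higher score means stronger binding and above about 3 to 5 exceeds background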

BINDER: L5 isolate with insertion SEQ ID NO: 489 (other) EPKSCDKTHTCPPCPAPELLGGPSVFLFPPKPKDTLMISRTPEVTCVVVDVSHEDPEVKFNWYVDGVEVHNAKTKPREEQYNSTYRVVSVLTVLHQDWLNGKEYKCKVSNKALPAPIEKTISKAKGQPREPQVYTLPPSRDELTKNQVSLTCLVKGFYPSDIAVEWESNGGCQPQASWCGGGQPENNYKTTPPVLDSDGSFFLYSKLTVDKSRWQQGNVFSCSVMHEALHNHYTQKSLSLSPGK
ELISA score: 0.7

BINDER: variant Fc-fragment Fc-5-73 (other, soluble elsewhere) EPKSCDKTHTCPPCPAPELLGGPSVFLFPPKPKDTLMISRTPEVTCVVVDVSHEDPEVKFNWYVDGVEVHNAKTKPREEQYNSTYRVVSVLTVLHQDWLNGKEYKCKVSNKALPAPIEKTISKAKGQPREPQVYTLPPSRDELTKNQVSLTCLVKGFYPSDIAVEWESNGGCAQQWHHEYCGGGQPENNYKTTPPVLDSDGSFFLYSKLTVDKSRWQQGNVFSCSVMHEALHNHYTQKSLSLSPGK
ELISA score: 0.3

BINDER: L5 isolate with insertion SEQ ID NO: 422 (other) EPKSCDKTHTCPPCPAPELLGGPSVFLFPPKPKDTLMISRTPEVTCVVVDVSHEDPEVKFNWYVDGVEVHNAKTKPREEQYNSTYRVVSVLTVLHQDWLNGKEYKCKVSNKALPAPIEKTISKAKGQPREPQVYTLPPSRDELTKNQVSLTCLVKGFYPSDIAVEWESNGGCQHSPPLCGGGQPENNYKTTPPVLDSDGSFFLYSKLTVDKSRWQQGNVFSCSVMHEALHNHYTQKSLSLSPGK
ELISA score: 0.3
